Values compiled from patent US4966900A.

Would you kindly list log10 MIC for each of these compounds?
Tested on: S. aureus IAA498
experimental-protocol: MIC
Assay type: cell-based
details: Staphylococcus aureus, Table 5
All values: log10 MIC [µg/mL].

Solved entries (count: 8):
Cc1nc2c(C(=O)O)cnn2c(SCC2=C(C(=O)O)N3C(=O)C(NC(=O)C(=NOC(C)(C)C(=O)NNC(=O)c4ccc(O)c(O)c4)c4csc(N)n4)C3SC2)c1C (centres unmarked) : 1.70
CC(C)(ON=C(C(=O)NC1C(=O)N2C(C(=O)O)=C(CSc3c4c(nc5c(C(=O)O)cnn35)CCC4)CSC12)c1csc(N)n1)C(=O)NNC(=O)c1ccc(O)c(O)c1 (centres unmarked) : 1.40
Cc1cc(SCC2=C(C(=O)O)N3C(=O)C(NC(=O)C(=NOC(C)(C)C(=O)NNC(=O)c4ccc(O)c(O)c4)c4csc(N)n4)C3SC2)n2nnnc2n1 (centres unmarked) : 0.50
Cc1cc(SCC2=C(C(=O)O)N3C(=O)C(NC(=O)C(=NOC(C)(C)C(=O)NNC(=O)c4ccc(O)c(O)c4)c4csc(N)n4)C3SC2)n2ncc(C(=O)O)c2n1 (centres unmarked) : 1.10
Cc1nc2ncnn2c(SCC2=C(C(=O)O)N3C(=O)C(NC(=O)C(=NOC(C)(C)C(=O)NNC(=O)c4ccc(O)c(O)c4)c4csc(N)n4)C3SC2)c1C (centres unmarked) : 1.10
Cc1nc2nc(C(=O)O)cc(SCC3=C(C(=O)O)N4C(=O)C(NC(=O)C(=NOC(C)(C)C(=O)NNC(=O)c5ccc(O)c(O)c5)c5csc(N)n5)C4SC3)n2n1 (centres unmarked) : 1.40
Cc1cc(SCC2=C(C(=O)O)N3C(=O)C(NC(=O)C(=NOC(C)(C)C(=O)NNC(=O)c4ccc(O)c(O)c4)c4csc(N)n4)C3SC2)n2ncnc2n1 (centres unmarked) : 0.80
CC(C)(ON=C(C(=O)NC1C(=O)N2C(C(=O)O)=C(CSc3ccnc4ncnn34)CSC12)c1csc(N)n1)C(=O)NNC(=O)c1ccc(O)c(O)c1 (centres unmarked) : 0.50

Record log10 MIC per entry; entries follow.
1. CC(C)(ON=C(C(=O)NC1C(=O)N2C(C(=O)O)=C(CSc3c4c(nc5nc(C(=O)O)nn35)CCC4)CSC12)c1csc(N)n1)C(=O)NNC(=O)c1ccc(O)c(O)c1 (centres unmarked)
2. CC(C)(ON=C(C(=O)NC1C(=O)N2C(C(=O)O)=C(CSc3c4c(nc5ncnn35)CCC4)CSC12)c1csc(N)n1)C(=O)NNC(=O)c1ccc(O)c(O)c1 (centres unmarked)
3. Cc1nc2nc(C(=O)O)nn2c(SCC2=C(C(=O)O)N3C(=O)C(NC(=O)C(=NOC(C)(C)C(=O)NNC(=O)c4ccc(O)c(O)c4)c4csc(N)n4)C3SC2)c1C (centres unmarked)

(A)
[1.40, 1.10, 1.70]
